B1: Citrate synthase, mitochondrial, P00889 (parent)
chain: MALLTAAARLFGAKNASCLVLAARHASASSTNLKDILADLIPKEQARIKTFRQQHGNTVVGQITVDMMYGGMRGMKGLVYETSVLDPDEGIRFRGYSIPECQKMLPKAKGGEEPLPEGLFWLLVTGQIPTEEQVSWLSKEWAKRAALPSHVVTMLDNFPTNLHPMSQLSAAITALNSESNFARAYAEGIHRTKYWELIYEDCMDLIAKLPCVAAKIYRNLYREGSSIGAIDSKLDWSHNFTNMLGYTDAQFTELMRLYLTIHSDHEGGNVSAHTSHLVGSALSDPYLSFAAAMNGLAGPLHGLANQEVLVWLTQLQKEVGKDVSDEKLRDYIWNTLNSGRVVPGYGHAVLRKTDPRYTCQREFALKHLPHDPMFKLVAQLYKIVPNVLLEQGKAKNPWPNVDAHSGVLLQYYGMTEMNYYTVLFGVSRALGVLAQLIWSRALGFPLERPKSMSTDGLIKLVDSK

- Variants of: B1
- run.conditions: Sus scrofa; pH 7.5; Thermal; CD; Tris-HCl 5.0 mM; reversible: yes; structure 1CTS; whole UniProt chain shown
endpoint: change of melting temperature, mutant - wild type (higher = more stable) (°C)

INSERT INTO results (mutant_code, result_units, test_result) VALUES
  ('H301G', '°C', -1.9),
  ('D402Q', '°C', 11.1),
  ('D402G', '°C', 4.6),
  ('H301R', '°C', -1.1);
